Can you tell me Encaps. efficiency (%) for the items I'm about to list?
experiment: RNA encapsulation efficiency of LNPs by Quant-IT Ribogreen; type: physicochemical; conditions: LNPs with luciferase mRNA; ionizable lipid:non-cationic lipid:sterol:PEG-modified lipid 50:10:38.5:1.5; percentage of RNA entrapped in the LNP
Your answer should be a plain number; it is taken to be in %.

What value of measured Encaps. efficiency (%) is listed for CCCCCCCCC(CCCCCCCC)OC(=O)C(CCSCCC(=O)OCCCCCC(C)C)C(=O)NCCCn1ccnc1 (stereo not drawn) ?
62.48

Can you share its Encaps. efficiency (%)? I mean this molecule: CCCCCCCCCCCCCCCCCC(=O)NC(CCSCCC(=O)OCC(CCCCCCCCCC)CCCCCCCCCCCC)C(=O)NCCCN1CCOCC1 (stereo not drawn)
76.40

Item CCCCCCCCCCCCCOC(=O)CCSCCC(C(=O)NCCCN1CCOCC1)C(=O)OCC(CCCCCC)CCCCCCCC (stereo not drawn) has what recorded Encaps. efficiency (%)?
52.30

Looking for the measured Encaps. efficiency (%) of CCCCCCCCCCC(CCCCCCCC)C(=O)NC(CCSCCC(=O)OCCCCCC(C)C)C(=O)NCC1CCN(C)CC1 (stereo not drawn) , can you help?
98.61

Consider the molecule shown here: CCCCCCCC/C=C\CCCCCCCCOC(=O)CCSCCC(NC(=O)C(CCCCCCCC)CCCCCCCCCC)C(=O)NCCCN1CCOCC1 (stereo not drawn) What is its recorded Encaps. efficiency (%)?
38.50

May I ask what Encaps. efficiency (%) has been recorded for CCCCCCCCC(CCCCCC)C(=O)NC(CCSCCC(=O)OCCCCCC(C)C)C(=O)NCCCN(C)C (stereo not drawn) ?
100.00

So what's the measured Encaps. efficiency (%) for this one? CCCCCCCCC(CCCCCCCC)OC(=O)C(CSCCC(=O)OCCCCCC)CC(=O)NCCCN1CCOCC1 (stereo not drawn)
26.96

So what does the record say about Encaps. efficiency (%) for CCCCCCCCC(CCCCCC)C(=O)NC(CCSCCC(=O)OCCCCCC)C(=O)NCCCN(CCO)CCO (stereo not drawn) ?
82.26

Any idea what its Encaps. efficiency (%) is? The molecule is CCCCCCCCC(CCCCCC)COC(=O)CCSCC(CC(=O)NCCCN1CCOCC1)C(=O)OC(CCCCCCCC)CCCCCCCC (stereo not drawn)
42.80

GET /values?readout=Encaps. efficiency (%)&item= CCCCCCCCC(CCCCCC)COC(=O)CCSCCC(C(=O)NCCCN1CCOCC1)C(=O)OCC(CCCCCC)CCCCCCCC (stereo not drawn)
51.46

Suppose we examine the molecule CCCCCCCCCCCCCCCCCC(=O)NC(CCSCCC(=O)OCC(CCCCCC)CCCCCCCC)C(=O)NC1CCN(C)CC1 (stereo not drawn) ; what Encaps. efficiency (%) value has been reported?
96.77

// Encaps. efficiency (%) lookup, key: CCCCCCCCCCCCCOC(=O)CCSCCC(NC(=O)C(CCCCCC)CCCCCCCC)C(=O)NCCN(CC)CC (stereo not drawn)
43.07

Please report the recorded Encaps. efficiency (%) for CCCCCCCCCCCCC(CCCCCCCCCC)COC(=O)CCSCC(CC(=O)NCCCN1CCOCC1)C(=O)OC(CCCCCCCC)CCCCCCCC (stereo not drawn) .
36.11

Item under review: CCCCCCCCC(CCCCCC)COC(=O)CCSCCC(NC(=O)C(CCCCCC)CCCCCCCC)C(=O)NCCN(CC)CC (stereo not drawn) . Reported Encaps. efficiency (%)?
66.27

# get_value(readout='Encaps. efficiency (%)', item= CCCCCCCCCCCCCCCCCC(=O)NC(CCSCCC(=O)OCCCCCCCCCCCCC)C(=O)NC1CCN(C)CC1 (stereo not drawn) )
99.22

###

Record form. Attribute: Encaps. efficiency (%). Fill in for each entry.
assay: RNA encapsulation efficiency of LNPs by Quant-IT Ribogreen; type: physicochemical; conditions: LNPs with luciferase mRNA; ionizable lipid:non-cationic lipid:sterol:PEG-modified lipid 50:10:38.5:1.5; percentage of RNA entrapped in the LNP
The reply should contain only the number, in %.

Tell me the measured Encaps. efficiency (%) of CCCCCCCC/C=C\CCCCCCCCOC(=O)CCSCCC(NC(=O)CCCCCCC/C=C\CCCCCCCC)C(=O)NCCCN1CCOCC1 (centres unmarked) [VC-LC-0355] , please.
81.58

GET /values?readout=Encaps. efficiency (%)&item= CCCCCCCC/C=C\CCCCCCCC(=O)NC(CCSCCC(=O)OCCCCCCCCCCCCC)C(=O)NC1CCN(C)CC1 (centres unmarked) [VC-LC-0322]
97.01

Given the compound CCCCCCCCC(CCCCCC)COC(=O)CCSCCC(C(=O)NC1CCN(C)CC1)C(=O)OC(CCCCCCCC)CCCCCCCC (centres unmarked) [VC-LC-0439] , what is its reported Encaps. efficiency (%)?
91.14

I'd like to know its Encaps. efficiency (%). The compound in question is CCCCCCCCCCCCCCCCOC(=O)CCSCCC(NC(=O)C(CCCCCC)CCCCCCCC)C(=O)NCCCn1ccnc1 (centres unmarked) [VC-LC-0263]
60.70

Report Encaps. efficiency (%) for CCCCCCCCCCCCCCCCCCCCCCOC(=O)CCSCCC(C(=O)NCCCn1ccnc1)C(=O)OC(CCCCCCCC)CCCCCCCC (centres unmarked) [VC-LC-0363] please.
63.87

###

experiment: Size distribution, polydispersity and Z-potential of LNPs by dynamic light scattering (Malvern Zetasizer); format: physicochemical; details: LNPs, standard formulation 50:10:38.5:1.5; DLS
Endpoint label: Z Potential (± D.E.) [mV] (mV)
Quick note: give the figure in mV, leave out the unit.

May I ask what Z Potential (± D.E.) [mV] has been recorded for CCCCCCCCCCC(CCCCCCCC)C(=O)NC(CCSCCC(=O)OCCCCCCCC(C)C)C(=O)NC1CCN(C)CC1 (centres unmarked) ?
-6.62

Given the entry CCCCCCCCCCC(CCCCCCCC)C(=O)NC(CCSCCC(=O)OCCCCCCCC)C(=O)NCC1CCN(C)CC1 (centres unmarked) , report its measured Z Potential (± D.E.) [mV].
-1.93

Quick one: Z Potential (± D.E.) [mV] for CCCCCCCC/C=C\CCCCCCCCOC(=O)CCSCCC(NC(=O)C(CCCCCCCC)CCCCCCCCCC)C(=O)NCCCN1CCOCC1 (centres unmarked) ?
-6.62

Can you share its Z Potential (± D.E.) [mV]? I mean this compound: CCCCCCCCOC(=O)CCSCC(CC(=O)NCCCN1CCOCC1)C(=O)OC(CCCCCCCC)CCCCCCCC (centres unmarked)
-11.66

Fill in the blank: the reported Z Potential (± D.E.) [mV] of CCCCCCCCCCCCCOC(=O)CCSCCC(NC(=O)C(CCCCCC)CCCCCCCC)C(=O)NCCCn1ccnc1 (centres unmarked) is ____.
-15.91

Any idea what its Z Potential (± D.E.) [mV] is? The compound is CCCCCCCC/C=C\CCCCCCCC(=O)NC(CCSCCC(=O)OCCCCCCCCCCCCCCCC)C(=O)NCCCN(CCO)CCO (centres unmarked)
-22.79

Data request, read-out Z Potential (± D.E.) [mV], for CCCCCCCC/C=C\CCCCCCCC(=O)NC(CCSCCC(=O)OCCCCCCCCCCCC)C(=O)NC1CCN(C)CC1 (centres unmarked)
7.00

Returns the measured Z Potential (± D.E.) [mV] for the input compound. Input: CCCCCCCCC(CCCCCCCC)OC(=O)C(CSCCC(=O)OCC(CC)CCCC)CC(=O)NCCCn1ccnc1 (centres unmarked)
-11.77

Which Z Potential (± D.E.) [mV] reading was recorded for the compound CCCCCCCCCCCCOC(=O)CCSCCC(C(=O)NCCCN1CCOCC1)C(=O)OCC(CCCCCC)CCCCCCCC (centres unmarked) ?
-20.42

// query Z Potential (± D.E.) [mV] value for entry CCCCCCCCCCCCOC(=O)CCSCCC(C(=O)NCCCn1ccnc1)C(=O)OC(CCCCCCCC)CCCCCCCC (centres unmarked)
-13.24

Reported Z Potential (± D.E.) [mV] for CCCCCCCCCCCCCCCCOC(=O)CCSCCC(NC(=O)C(CCCCCC)CCCCCCCC)C(=O)NCCCn1ccnc1 (centres unmarked) : what is it?
-17.30

###

test: Size distribution, polydispersity and Z-potential of LNPs by dynamic light scattering (Malvern Zetasizer); format: physicochemical; conditions: LNPs, standard formulation 50:10:38.5:1.5; DLS
Endpoint label: P.D.I.
Give a plain numeric answer without units written out.

Fill in: P.D.I. of CCCCCCCC/C=C\CCCCCCCCOC(=O)CCSCCC(NC(=O)C(CCCCCC)CCCCCCCC)C(=O)NCCCN1CCOCC1 (stereo not drawn) [VC-LC-0361] is ___
0.18

// lookup P.D.I. for CCCCCCCCC(CCCCCC)C(=O)NC(CCSCCC(=O)OCCCCCC)C(=O)NCCCN(CCO)CCO (stereo not drawn) [VC-LC-0206]
0.17

Suppose we examine the molecule CCCCCCCCC(CCCCCCCC)OC(=O)C(CCSCCC(=O)OCC(CC)CCCC)C(=O)NCCCn1ccnc1 (stereo not drawn) [VC-LC-0365] ; what P.D.I. value has been reported?
0.24
